# Tested on: SpTbr T-box DNA-binding domain (GST fusion);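 note: protein at 200 nM in PBS on universal double-stranded arrays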
# Sequence: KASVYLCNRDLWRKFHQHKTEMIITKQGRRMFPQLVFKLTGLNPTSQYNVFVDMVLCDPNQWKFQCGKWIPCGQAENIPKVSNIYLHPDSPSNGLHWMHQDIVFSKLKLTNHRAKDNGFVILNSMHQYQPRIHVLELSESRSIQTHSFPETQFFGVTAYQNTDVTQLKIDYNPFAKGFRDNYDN
# protocol: PBM E-score of 8-mer (E-score (dimensionless, -0.5 to 0.5)); higher = stronger binding preference
# condition.description: the construct has about 5 more residues each side
The full ranking holds about 33,000 sequences; the median of “E-score (dimensionless, -0.5 to 0.5)” is about -0.046, and the highest 2% start at about 0.36. What follows is part of a selection rich in the highest values, with near analogues and random picks from the rest.
Items are presented alongside their recorded PBM E-score of 8-mer.

Consider the worked cases shown below.
biopolymer.sequence	readout.kind	result
ATGTGTGA	PBM E-score of 8-mer	0.484
CCAGTTGA	PBM E-score of 8-mer	0.0132
GCCGTGAA	PBM E-score of 8-mer	0.354

Query: PBM E-score of 8-mer; subject: "ATCTCACG" 0.29

* * *

# Tested on: SpTbr T-box DNA-binding domain (GST fusion);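 note: protein at 200 nM in PBS on universal double-stranded arrays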
# Sequence: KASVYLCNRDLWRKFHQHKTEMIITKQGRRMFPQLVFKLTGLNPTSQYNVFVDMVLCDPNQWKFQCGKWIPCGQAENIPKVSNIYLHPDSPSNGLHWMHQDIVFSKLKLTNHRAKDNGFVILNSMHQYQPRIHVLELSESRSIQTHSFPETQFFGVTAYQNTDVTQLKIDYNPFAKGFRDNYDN
# protocol: PBM E-score of 8-mer (E-score (dimensionless, -0.5 to 0.5)); higher = stronger binding preference
# condition.description: target sequence: T-box / the construct has about 5 more residues each side
Over roughly 33,000 sequences, “E-score (dimensionless, -0.5 to 0.5)” has its median near -0.046; the highest 2% begin near 0.36. For the sample, the highest values were picked, then their nearest neighbours and some sequences at random.
Record yes (1) whenever PBM E-score of 8-mer is at 0.2 or higher; record no (0) when lower.

Please review the following examples before continuing.
biopolymer.sequence	category
CCGGTGAG	no (0)
CCTGACAG	no (0)
ACTGACAC	yes (1)
ACCTGTAA	no (0)
CCACGTGC	no (0)

Exam item: decide whether the reported PBM E-score of 8-mer for "GCTAACAC" is at least 0.2. yes (1)

// next record "AGACTGAT" no (0)

Entry "CACCTTGA" please yes (1)

Field entry: "CTCACGCC" yes (1)

* * *

This section presents sequences with their documented PBM E-score of 8-mer values.
# Tested on: SpTbr T-box DNA-binding domain (GST fusion);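 note: protein at 200 nM in PBS on universal double-stranded arrays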
# Sequence: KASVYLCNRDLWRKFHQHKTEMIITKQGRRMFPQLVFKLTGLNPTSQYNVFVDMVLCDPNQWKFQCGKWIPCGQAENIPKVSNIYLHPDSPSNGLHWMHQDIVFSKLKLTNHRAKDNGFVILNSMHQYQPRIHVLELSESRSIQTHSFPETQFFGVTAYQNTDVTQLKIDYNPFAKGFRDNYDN
# protocol: PBM E-score of 8-mer (E-score (dimensionless, -0.5 to 0.5)); Tbr is Tbrain of the sea star Patiria miniata (Pm) or the sea urchin Strongylocentrotus purpuratus (Sp); higher = stronger binding preference
# condition.description: target sequence: T-box / the construct has about 5 more residues each side
Over roughly 33,000 sequences, “E-score (dimensionless, -0.5 to 0.5)” has its median near -0.046; the highest 2% begin near 0.36. Shown is part of a subset that was picked to be rich in the highest values.

Below, 5 sequences whose answers are already recorded.
biopolymer.sequence	study.target	result
AAACCTGA	SpTbr T-box DNA-binding domain (GST fusion)	-0.00426
CAGTGTTA	SpTbr T-box DNA-binding domain (GST fusion)	0.31
CCCTATCA	SpTbr T-box DNA-binding domain (GST fusion)	0.0101
CGAGGGCC	SpTbr T-box DNA-binding domain (GST fusion)	-0.127
AAAAGTGA	SpTbr T-box DNA-binding domain (GST fusion)	0.169

Any idea what PBM E-score of 8-mer was measured for "ATGGTGTA" ? 0.127

Likewise for "TCACCTGA" ? 0.334

Try this sequence too: "AAACCATC" -0.0776

Note, next up: "CAAAGGTG" 0.392

Try "ACGGTGAC" next. 0.284

Same read-out for "AGGGTGAG" ? 0.216

Now this one: "ATCTGCCG" -0.21

Repeat for the following sequence: "AATAGGTA" -0.0758

Please give the result for "AGACCTTG" too. -0.19

Entry "AAACAGAT" please -0.136
